Every entry's value here was drawn from PubChem BioAssay AID2068.

target: Tyrosine-protein phosphatase non-receptor type 7 (Homo sapiens) (UniProt P35236); assay: redox-active compounds inhibiting HePTP phosphatase – biochemical, fluorescence, mechanism study (AID 2068); conditions: recombinant HePTP, fluorescent phosphatase assay, redox-state modulation
Sequence (P35236 whole entry, looked up): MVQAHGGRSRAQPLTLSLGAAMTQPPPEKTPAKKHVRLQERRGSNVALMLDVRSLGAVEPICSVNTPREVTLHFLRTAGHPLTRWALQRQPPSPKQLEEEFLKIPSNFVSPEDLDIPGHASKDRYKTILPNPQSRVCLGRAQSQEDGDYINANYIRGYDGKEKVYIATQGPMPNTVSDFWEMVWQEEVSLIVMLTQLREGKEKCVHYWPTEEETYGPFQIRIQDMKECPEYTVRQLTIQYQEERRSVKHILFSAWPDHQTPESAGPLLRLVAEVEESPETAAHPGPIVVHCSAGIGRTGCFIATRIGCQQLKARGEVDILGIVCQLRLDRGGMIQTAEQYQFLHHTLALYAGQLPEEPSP
Quantity kind: pIC50
Entry type: numeric. Quantity: pIC50, the -log10 of concentration in molar units.

Qu. I have this compound here, O=C(O)CSc1cc(C(=O)c2ccccc2O)cn2c(=O)c3c(-c4ccccc4)csc3nc12 , and I need its recorded pIC50.
Ans. 5.76
